# Measured Target: Peroxisome proliferator-activated receptor gamma (Homo sapiens)
# Sequence (P37231 whole entry): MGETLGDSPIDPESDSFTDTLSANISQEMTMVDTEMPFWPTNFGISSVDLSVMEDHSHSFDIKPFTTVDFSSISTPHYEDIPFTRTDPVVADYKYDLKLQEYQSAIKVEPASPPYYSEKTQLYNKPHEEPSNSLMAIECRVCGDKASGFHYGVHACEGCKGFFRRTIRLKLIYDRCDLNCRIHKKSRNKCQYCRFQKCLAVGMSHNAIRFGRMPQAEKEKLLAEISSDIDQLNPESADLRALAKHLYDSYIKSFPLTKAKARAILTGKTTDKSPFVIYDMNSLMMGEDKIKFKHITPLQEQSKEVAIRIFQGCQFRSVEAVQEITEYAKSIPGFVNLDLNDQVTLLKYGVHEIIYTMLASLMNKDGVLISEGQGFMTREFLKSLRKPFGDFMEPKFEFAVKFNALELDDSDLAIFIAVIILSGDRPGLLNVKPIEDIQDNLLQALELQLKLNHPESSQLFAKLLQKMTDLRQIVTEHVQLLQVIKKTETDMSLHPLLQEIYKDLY
# Method Notes: Agonist activity at PPAR-gamma in human BMMSC cells assessed as induction of adiponectin production in presence of IDX adipogenic induction medium and measured on day 5 by ELISA
pEC50: −log10 of the molar value.
Endpoint Name: pEC50

CCC/C=C1/C(=O)O[C@@H](C)[C@H]1O : 4.60
CCCC=C1C(=O)O[C@@H](C)[C@@H]1O : 4.72

----------
# Measured Target: Peroxisome proliferator-activated receptor delta (Homo sapiens) (UniProt Q03181)
# Sequence (whole entry): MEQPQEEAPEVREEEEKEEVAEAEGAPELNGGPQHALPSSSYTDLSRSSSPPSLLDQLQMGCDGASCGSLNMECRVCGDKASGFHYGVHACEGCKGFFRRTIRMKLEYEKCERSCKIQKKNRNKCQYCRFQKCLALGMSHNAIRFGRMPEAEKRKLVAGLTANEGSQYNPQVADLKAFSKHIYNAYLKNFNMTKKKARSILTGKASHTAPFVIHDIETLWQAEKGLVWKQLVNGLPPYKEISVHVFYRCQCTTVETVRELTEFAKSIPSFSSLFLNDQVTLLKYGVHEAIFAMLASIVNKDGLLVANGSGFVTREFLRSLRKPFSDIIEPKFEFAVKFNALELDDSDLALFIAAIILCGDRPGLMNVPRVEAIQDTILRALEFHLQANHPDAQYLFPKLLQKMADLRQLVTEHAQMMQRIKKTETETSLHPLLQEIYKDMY
# Method Notes: Displacement of Fluormone Pan-PPAR Green from GST-tagged human PPAR-delta ligand binding domain at 10 uM by LanthaScreen TR-FRET competitive binding assay
The source made the active and inactive calls. No cut-off for these calls is given here.
Endpoint Name: Activity

Below, each entry is followed by its recorded Activity result.
CCCCCCCCCCC/C=C1/C(=O)O[C@@H](C)[C@H]1O : inactive
CCCCCCCCC/C=C1/C(=O)O[C@@H](C)[C@H]1O : inactive
CCCCCCCCCCCCC/C=C1/C(=O)O[C@@H](C)[C@H]1O : inactive
CCCCCCCCCCCCC/C=C1/C(=O)O[C@@H](C)[C@@H]1O : inactive

Prompt line: Determine from records and report Activity for CCCCCCCCCCCC/C=C1/C(=O)O[C@@H](C)[C@H]1O
Response line: inactive

Prompt line: Please look at this compound and report its Activity: CCC/C=C1/C(=O)O[C@@H](C)[C@H]1O
Response line: inactive

Prompt line: Answer with the recorded Activity of CCCCCCC/C=C1/C(=O)O[C@@H](C)[C@H]1O only.
Response line: inactive

Prompt line: Tell me Activity reported for CCCC=C1C(=O)O[C@@H](C)[C@@H]1O
Response line: inactive
